target: GST-tagged truncated LRRK2 (Homo sapiens (Human), UniProt Q5S007); test: LRRK2 Lantha Screen kinase assay; conditions: geometric mean of 2-5 determinations unless otherwise indicated (a: >=6 determinations; b: single determination); read-out: LRRK2 WT IC50
Sequence (Q5S007 970-2527): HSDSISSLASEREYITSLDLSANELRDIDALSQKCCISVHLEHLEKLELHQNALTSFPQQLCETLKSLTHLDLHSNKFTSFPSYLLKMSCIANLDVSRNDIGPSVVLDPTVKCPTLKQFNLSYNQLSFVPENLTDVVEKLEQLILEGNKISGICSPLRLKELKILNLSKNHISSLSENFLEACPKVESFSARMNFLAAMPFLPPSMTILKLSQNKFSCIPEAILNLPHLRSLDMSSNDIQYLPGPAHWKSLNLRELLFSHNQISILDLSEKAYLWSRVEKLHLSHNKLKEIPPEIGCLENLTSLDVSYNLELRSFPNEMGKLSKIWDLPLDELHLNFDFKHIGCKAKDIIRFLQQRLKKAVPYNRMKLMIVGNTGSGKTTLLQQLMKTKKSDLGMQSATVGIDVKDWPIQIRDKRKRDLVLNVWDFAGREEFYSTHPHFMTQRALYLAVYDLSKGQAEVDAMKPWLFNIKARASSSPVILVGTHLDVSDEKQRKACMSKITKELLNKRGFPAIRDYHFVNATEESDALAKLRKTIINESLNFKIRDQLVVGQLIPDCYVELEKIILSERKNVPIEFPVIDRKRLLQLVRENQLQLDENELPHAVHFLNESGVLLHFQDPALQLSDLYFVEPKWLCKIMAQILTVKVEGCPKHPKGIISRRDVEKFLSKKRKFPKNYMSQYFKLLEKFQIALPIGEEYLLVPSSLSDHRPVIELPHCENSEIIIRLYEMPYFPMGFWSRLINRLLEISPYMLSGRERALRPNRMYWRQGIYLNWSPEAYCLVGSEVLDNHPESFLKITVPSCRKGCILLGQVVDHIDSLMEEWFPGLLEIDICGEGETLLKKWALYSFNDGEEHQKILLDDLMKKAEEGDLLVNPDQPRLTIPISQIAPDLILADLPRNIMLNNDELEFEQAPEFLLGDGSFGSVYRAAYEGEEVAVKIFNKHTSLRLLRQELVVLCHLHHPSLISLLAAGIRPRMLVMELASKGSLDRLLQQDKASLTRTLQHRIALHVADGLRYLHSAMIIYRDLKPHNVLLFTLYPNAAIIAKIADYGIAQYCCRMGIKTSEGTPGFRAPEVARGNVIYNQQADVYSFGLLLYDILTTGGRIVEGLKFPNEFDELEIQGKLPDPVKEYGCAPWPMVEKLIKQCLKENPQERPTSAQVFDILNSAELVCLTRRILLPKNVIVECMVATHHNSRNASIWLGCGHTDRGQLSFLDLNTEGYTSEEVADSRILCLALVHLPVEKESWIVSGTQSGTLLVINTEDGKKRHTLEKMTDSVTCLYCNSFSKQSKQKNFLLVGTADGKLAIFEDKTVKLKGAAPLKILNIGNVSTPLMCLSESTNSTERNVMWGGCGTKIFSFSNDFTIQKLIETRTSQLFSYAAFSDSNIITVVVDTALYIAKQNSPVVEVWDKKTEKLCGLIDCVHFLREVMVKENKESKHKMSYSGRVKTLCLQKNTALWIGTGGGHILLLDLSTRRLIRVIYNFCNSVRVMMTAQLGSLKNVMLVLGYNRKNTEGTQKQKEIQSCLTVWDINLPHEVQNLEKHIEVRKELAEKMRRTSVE
pIC50: −log10 of the molar value.
experimentalEndpoint: pIC50

Worked examples, 3 compounds total:
compound	pIC50
CN(C)c1ncnc2[nH]cc(-c3cccc(CO)c3)c12	7.47
CN(C)c1ncnc2[nH]cc(-c3cc(F)cc(C#N)c3)c12	7.28
OC1CCCN(c2ncnc3[nH]cc(-c4cccc(F)c4)c23)C1 (stereo not drawn)	7.24

a. CN(C)c1ncnc2[nH]cc(-c3cnn(C)c3)c12
b. COc1ccc(Cl)cc1-c1c[nH]c2ncnc(N(C)C)c12
Just tell me: smaller pIC50 value, a or b ? Reply with the label of the item you choose.
a
(a: 7.26, b: 7.66)

---

molecular target: mutant G2019S LRRK2 (Homo sapiens (Human), UniProt Q5S007, G2019S); assay: LRRK2 Lantha Screen kinase assay, mutant enzyme; details: geometric mean of 2-5 determinations unless otherwise indicated (a: >=6 determinations; b: single determination)
Sequence (Q5S007 970-2527 G2019S): as the sequence (Q5S007 970-2527) above, with G1050S counted along it
experimentalEndpoint: IC50 (µM)

molecule	IC50 [µM]
CN(C)c1ncnc2[nH]cc(-c3cc(F)cc(C#N)c3)c12	0.396
C[C@H]1CCCN(c2ncnc3[nH]cc(-c4ccccc4F)c23)C1	0.122
N#Cc1cccc(-c2c[nH]c3ncnc(N4CCOCC4)c23)c1	0.011
Cc1nn(C)cc1-c1c[nH]c2ncnc(N3CCOCC3)c12	0.091
N#Cc1cccc(-c2c[nH]c3ncnc(N4CCCC(C#N)C4)c23)c1 (stereo not shown)	0.183
N#Cc1cccc(-c2c[nH]c3ncnc(N4CCCC(c5ncc[nH]5)C4)c23)c1 (stereo not shown)	0.331

A. C1=C(c2c[nH]c3ncnc(N4CCOCC4)c23)COCC1
B. COc1ccc(F)cc1-c1c[nH]c2ncnc(N3CCOCC3)c12
Just tell me: smaller IC50 value, A or B ? Reply with the label of the item you choose.
B

P. CN(C)C(=O)CCNc1ncnc2[nH]cc(-c3cccc(C#N)c3)c12
Q. Fc1ccc(F)c(-c2c[nH]c3ncnc(N4CCOCC4)c23)c1
R. N#Cc1cccc(-c2c[nH]c3ncnc(N4CCCCC4)c23)c1
S. COCC1CN(c2ncnc3[nH]cc(-c4cccc(C#N)c4F)c23)CCO1 (stereo not shown)
Sort the molecules on IC50; start with the lowest figure. Give me the labels in the order the question wants.
R, Q, P, S

1. Cc1cnc(Cl)c(-c2c[nH]c3ncnc(N4CCC[C@H](C)C4)c23)c1
2. N#Cc1cccc(-c2c[nH]c3ncnc(N4CCCC5(CCOC5)C4)c23)c1 (stereo not shown)
Just tell me: smaller IC50 value, 1 or 2 ? Reply with the label of the item you choose.
1

P. c1cncc(-c2c[nH]c3ncnc(N4CCOCC4)c23)c1
Q. Cc1nc(N2CCOCC2)c2c(-c3cccc(C#N)c3)c[nH]c2n1
R. COc1cccc(-c2c[nH]c3ncnc(N4CCOCC4)c23)c1
S. OC1CCCN(c2ncnc3[nH]cc(-c4cccc(F)c4)c23)C1 (stereo not shown)
T. C[C@H]1CCCN(c2ncnc3[nH]cc(-c4cccc(O)c4)c23)C1
Sort the molecules on IC50; start with the lowest figure. Give me the labels in the order the question wants.
T, R, S, P, Q

1. COc1cccc(F)c1-c1c[nH]c2ncnc(N3CCOCC3)c12
2. CN1CCCC(Nc2ncnc3[nH]cc(-c4cccc(C#N)c4)c23)C1 (stereo not shown)
3. C[C@H]1CCCN(c2ncnc3[nH]cc(-c4ccc(C(N)=O)cc4)c23)C1
4. N#Cc1cccc(-c2c[nH]c3ncnc(N4CCOC(Cc5noc(C(F)F)n5)C4)c23)c1 (stereo not shown)
Sort the molecules on IC50; start with the lowest figure. Give me the labels in the order the question wants.
3, 1, 4, 2
(3: 0.009 µM, 1: 0.034 µM, 4: 0.134 µM, 2: 0.243 µM)

1. C[C@H]1CCCN(c2ncnc3[nH]cc(-c4cnc5cc[nH]c5c4)c23)C1
2. C[C@H]1CCCN(c2ncnc3[nH]cc(-c4cccnc4)c23)C1
Pick one: 1 or 2 . Which has the bigger IC50 number? Reply with the label of the item you choose.
2
(2: 0.095 µM, 1: 0.05 µM)

A. COc1ccc(C#N)cc1-c1c[nH]c2ncnc(N(C)C)c12
B. N#Cc1cccc(-c2c[nH]c3ncnc(N4CCC(c5cc[nH]n5)CC4)c23)c1
C. COc1ccc(F)cc1-c1c[nH]c2ncnc(N(C)C)c12
Sort the molecules on IC50; start with the lowest figure. Give me the labels in the order the question wants.
C, A, B
(C: 0.011 µM, A: 0.03 µM, B: 0.136 µM)
